Where these numbers come from: patent US20250099420A1

Target: GPR139 (Homo sapiens, UniProt Q6DWJ6)
Sequence (Q6DWJ6 whole entry): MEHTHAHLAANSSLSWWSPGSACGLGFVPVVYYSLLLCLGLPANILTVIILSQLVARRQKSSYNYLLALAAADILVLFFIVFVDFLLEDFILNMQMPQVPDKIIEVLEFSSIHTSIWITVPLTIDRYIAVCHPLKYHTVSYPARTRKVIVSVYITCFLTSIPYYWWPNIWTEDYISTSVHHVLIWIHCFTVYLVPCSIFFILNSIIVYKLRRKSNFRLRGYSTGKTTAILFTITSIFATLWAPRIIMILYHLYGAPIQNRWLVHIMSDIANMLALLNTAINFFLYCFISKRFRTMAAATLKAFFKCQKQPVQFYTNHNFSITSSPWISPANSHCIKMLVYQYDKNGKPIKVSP
Assay: GPR139 Antagonist titration assay (calcium detection, HEK-GPR139 cells, vs EC80 of S-JNJ-63533054)
Conditions: based on logP
What GPR139 Antagonist Activity Lipophilic Efficiency (logP) was measured for each of the following?
When you answer, write just the number.

### Prompt Look up and report measured GPR139 Antagonist Activity Lipophilic Efficiency (logP) for this entry: CCOC(=O)c1ccc2nc(C)c3c(c2c1)OC(C(C)(Cl)Br)C3 (centres unmarked) [SR-01000220077]
### Response 1.20

### Prompt Look up and report measured GPR139 Antagonist Activity Lipophilic Efficiency (logP) for this entry: O=C(Nn1c(-c2cccc(Cl)c2)nc2ccccc2c1=O)c1cc(Br)ccc1Cl [SR-01000433654]
### Response −712.7E−3

### Prompt Look up and report measured GPR139 Antagonist Activity Lipophilic Efficiency (logP) for this entry: CCOC(=O)N1CCC(NC(=O)c2cnn3c(O)c(Cc4cccc(C)c4)c(C)nc23)CC1 [SR-01000581959]
### Response 2.24

### Prompt Look up and report measured GPR139 Antagonist Activity Lipophilic Efficiency (logP) for this entry: CCOC(=O)C(CC)Oc1ccc2c(C)c(Cc3ccccc3)c(=O)oc2c1 (centres unmarked) [SR-01000421299]
### Response 0.17

### Prompt Look up and report measured GPR139 Antagonist Activity Lipophilic Efficiency (logP) for this entry: COc1ccccc1CNC(=O)N1c2ccccc2Sc2ccccc21 [SR-01000506165]
### Response 1.14

### Prompt Look up and report measured GPR139 Antagonist Activity Lipophilic Efficiency (logP) for this entry: COc1ccc(-c2cccc(NS(=O)(=O)c3ccc(I)cc3)c2)nn1 [SR-01000914310]
### Response 1.56

### Prompt Look up and report measured GPR139 Antagonist Activity Lipophilic Efficiency (logP) for this entry: Cc1cc(C)c(NC(=O)c2ccc(Br)cc2)c(C)c1NC(=O)c1ccc(Br)cc1 [SR-01000512383]
### Response −1.6E+0

### Prompt Look up and report measured GPR139 Antagonist Activity Lipophilic Efficiency (logP) for this entry: Cc1ccc(Oc2ccc(OCC(=O)N3C(C)CCCC3C)cc2)cc1 (centres unmarked) [SR-01000445554]
### Response 0.71

----------
Test system: parental HEK cells
Assay: HEK parental Agonist Counterscreen Assay (non-transfected cells)
Type: cell-based
Conditions: HEK Agonist Activity section of Table 4 (parental HEK counterscreen)
observed_property: EC50

### Prompt Look up and report measured EC50 for this entry: CCOC(=O)C1C2C=CC3(CN(C(C)c4ccc(Br)cc4)C(=O)C13)O2 (stereo not drawn)
### Response > 14.1 µM

### Prompt Look up and report measured EC50 for this entry: `Cc1ccc2c(CC(=O)NNC(=O)CC34CC5CC(CC(C5)C3)C4)coc2c1`
### Response > 14.8 µM

### Prompt Look up and report measured EC50 for this entry: Cc1ccc(CN2CC34C=CC(O3)C(C(=O)NCCC3=CCCCC3)C4C2=O)cc1 (stereo not drawn)
### Response > 13.4 µM

### Prompt Look up and report measured EC50 for this entry: `O=C(CN1CCCN(Cc2ccc(F)cc2Cl)C1=O)NC1CCCC1`
### Response > 14.1 µM

### Prompt Look up and report measured EC50 for this entry: `Cc1cc(C)c2c(CC(=O)NNC(=O)COc3ccccc3)coc2c1`
### Response > 14.1 µM

### Prompt Look up and report measured EC50 for this entry: `O=C(COc1ccc2ccccc2c1)NNC(=O)c1cccc([N+](=O)[O-])c1`
### Response > 14.1 µM

### Prompt Look up and report measured EC50 for this entry: `Nc1ccc2c(C(F)(F)F)cc(=O)oc2c1`
### Response 10.7 µM

### Prompt Look up and report measured EC50 for this entry: CC1=NNC(=O)C1CC(=O)N/N=C/c1c(Cl)cccc1Cl (stereo not drawn)
### Response > 14.1 µM

### Prompt Look up and report measured EC50 for this entry: `Cc1cc(NC(=O)Cn2ncc3c2-c2ccccc2OC3)no1`
### Response > 14.1 µM

### Prompt Look up and report measured EC50 for this entry: `Cc1cc(C)c2c(cnn2CC(=O)N2CCc3ccccc3C2)c1`
### Response > 14.1 µM

### Prompt Look up and report measured EC50 for this entry: `Cl.Cl.Nc1[nH]ncc1-c1ccc(NC(=O)[C@H](N)Cc2cccc(F)c2)cc1`
### Response > 14.1 µM

### Prompt Look up and report measured EC50 for this entry: Cc1cccnc1CNC(=O)CCC1(Cc2cccc3ccccc23)CCC(=O)N1 (stereo not drawn)
### Response > 14.1 µM

### Prompt Look up and report measured EC50 for this entry: `CCCc1nn(CC(=O)NCc2nc3ccccc3n2C)c(=O)c2cc3ccsc3n12`
### Response > 14.1 µM

### Prompt Look up and report measured EC50 for this entry: `CCCN1C(=O)CCc2cc(NC(=O)NCCc3ccc(OC)cc3)ccc21`
### Response > 14.1 µM

### Prompt Look up and report measured EC50 for this entry: `CCCc1cc(=O)n2[nH]c(NCc3ccccc3F)nc2n1`
### Response > 14.1 µM

### Prompt Look up and report measured EC50 for this entry: `COc1cccc(CNC(=O)Nc2ccc(-c3ccncc3)cc2)c1.O=C(O)C(F)(F)F`
### Response > 14.1 µM

### Prompt Look up and report measured EC50 for this entry: CC(C(=O)NCCn1nnn(-c2ccccc2)c1=O)n1nc2ccccc2n1 (stereo not drawn)
### Response > 14.1 µM

### Prompt Look up and report measured EC50 for this entry: `COC(=O)c1ccc(CSc2nnc(N)s2)cc1`
### Response > 16 µM
